assay-remarks: clinical
measurement-conditions: both, human, plasma, po, 10 mg
assay-metric: Tmax (h)
Numeric only. Scale: h

Input line: Return reported Tmax; argument: CC12CC3CC(C)(C1)CC(N)(C3)C2 [memantine, 1-amino-3,5-dimethyl adamantane]
Output line: 6.5

----------
assay-remarks: clinical
measurement-conditions: both, human, plasma, po
assay-metric: Cmax

Input line: Entry CC12CC3CC(C)(C1)CC(N)(C3)C2 [memantine, 1-amino-3,5-dimethyl adamantane] has what Cmax?
Output line: 13 ng/mL
